Task for the reader: assign each of the following compounds its reported melting point.

Record CCOC(=O)c1nn(-c2ccc(C=O)cc2)nc1C , field melting point: 97 to 99 °C

Record CCON1CCC2(CC1)NC(=O)C(c1c(C)cc(C)cc1C)=C2O , field melting point: > 250 °C

Record CC(=O)Nc1nc(CS(=O)(=O)c2ccc(N)cc2)cs1 , field melting point: 135 to 137 °C

Record CC(C)(C)OC(=O)CCc1nc(C(=O)OC(C)(C)C)ccc1O , field melting point: 172 to 174 °C

---

Task for the reader: assign each of the following compounds its reported melting point.

Record NC1=NC(c2ccc(OC(F)(F)F)cc2)(c2cccc(-c3cccnc3F)c2)C2=NCCN12 (stereo unspecified) , field melting point: 95 to 100 °C

Record COC(=O)CC[C@H]1C(=O)N(c2ccc(F)cc2)[C@@H]1c1ccc(O)cc1 , field melting point: 136 to 137 °C

Record O=c1[nH]c(=O)c2c1c1oc3ccccc3oc1c1[nH]c3cc(O)ccc3c12 , field melting point: > 340 °C

Record COc1cccc(C)c1N(C(C)=O)C(C)=O , field melting point: 116 to 119 °C

Record C[C@@H]1CN(C(=O)[C@@](C)(O)C(F)(F)F)[C@@H](C)CN1C(=O)c1ccc(F)cc1 , field melting point: 177 to 178 °C

Record COC(=O)N(C)c1cccc(C(=O)C=CN(C)C)c1 , field melting point: 93 to 95 °C

Record CS(=O)(=O)Nc1cc(C(O)CNCCCCCCOCCCCOc2ccc3ccccc3c2)ccc1O (stereo unspecified) , field melting point: 99.5 to 100 °C

Record COc1cc(COc2nn(-c3ccccc3)cc2CC2=NCCO2)ccc1OCc1nc(-c2ccco2)oc1C , field melting point: 95 to 96 °C

Record Clc1ccc2c(c1)N(C1CN3CCC1CC3)c1ccccc1S2 (stereo unspecified) , field melting point: 165 °C

Record O=C(O)c1cc(=O)c2c([nH]1)-c1ccccc1SC2 , field melting point: 256 to 257 °C

Record Cc1cc(Nc2cc(Cl)nc(-c3ccccc3)n2)[nH]n1 , field melting point: 235 to 236 °C

Record CC(C)(C)C(=N)Nc1ccccc1N1CCOCC1 , field melting point: 126 °C

Record Cc1oc(-c2ccccc2)nc1COc1ccc(C=O)cn1 , field melting point: 116 to 117 °C

Record OCc1cccc2oc3c(c12)CCCC3 , field melting point: 43 to 45 °C

Record CCOC(=O)C1CCN(c2nnc(NCc3ccc4c(c3)OCO4)c3cnccc23)CC1 , field melting point: 119 to 120 °C

Record N#CC(Nc1ccc2ccccc2c1)c1c(Cl)cccc1Cl (stereo unspecified) , field melting point: 94.8 °C

---

Task for the reader: assign each of the following molecules its reported melting point.

Record Cc1ccccc1NS(=O)(=O)c1ccc(N2CCNC2=O)cc1 , field melting point: 209 to 210 °C

Record COc1nc(N)nc(-c2ccccc2)c1-c1ccc(=O)n(C(C)C)n1 , field melting point: 230 to 233 °C

Record C[C@@H]1Cc2ccsc2[C@H](C)N1CCNS(=O)(=O)c1ccc(N)cc1 (relative stereo) , field melting point: 126 to 131 °C

Record Clc1cccc(Nc2ccc(Oc3ccccc3)cc2)n1 , field melting point: 69 to 73 °C

Record CN(C(=O)C(C)(C)N1C(=O)c2ccccc2C1=O)C(c1ccc(F)cc1)c1ccc(F)cc1 , field melting point: 169 to 171 °C

Record O=C(CCl)c1ccc(-c2ccc(S(=O)(=O)C(F)F)cc2)cc1 , field melting point: 157 to 159 °C

---

Task for the reader: assign each of the following compounds its reported melting point.

Record COc1cccc(NC(=O)NC2CC(c3ccccc3F)c3ccccc3N(CC(=O)NC(C)(C)C)C2=O)c1 (centres undefined) , field melting point: 265 to 280 °C

Record C[C@H](Oc1c(I)c(C(=O)NC(CO)CO)c(I)c(C(=O)NC(CO)CO)c1I)C(N)=O , field melting point: 110 °C

Record COc1ccc(C2CSc3ccccc3NC2=O)cc1 (centres undefined) , field melting point: 145 °C

Record COC(=O)C(CO)N(Cc1ccccc1[N+](=O)[O-])S(=O)(=O)c1ccc(OC)cc1 (centres undefined) , field melting point: 127 to 129 °C

Record Cc1c(C)c2c(c(C)c1OCc1ccccc1)C(=O)CC(C)(COC(C)(C)C)O2 (centres undefined) , field melting point: 51 to 62 °C

Record COC1(c2nc3ccc(F)cc3s2)C=CC(=NS(=O)(=O)c2ccc(C)cc2)C=C1 (centres undefined) , field melting point: 135 °C

Record COc1cc2c(c(Cl)c1Cl)CCCC2 , field melting point: 67 to 68.5 °C

Record Nc1cccc(Cl)c1-c1nc(-c2ccncc2)c(-c2ccc(Cl)cc2)[nH]1 , field melting point: 220 to 222 °C

Record C=CCCC(O)C(C)(C)N1COC(C)=C(c2ccccc2)C1=O (centres undefined) , field melting point: 74 to 75 °C

Record O=CC(=Cc1ccc([N+](=O)[O-])s1)c1ccc(Br)cc1 , field melting point: 105 to 108 °C

Record Cc1ccc(NC(=O)c2ccc(CN3CCCCC3)c(C(F)(F)F)c2)cc1-c1ccc2cnncc2c1 , field melting point: 175 to 177 °C

Record O=C1CCN(c2ccncn2)CC1 , field melting point: 61 to 65 °C

Record Cc1nc(N2CCc3ccccc3CC2)c(C#N)c(=O)n1C1CC1 , field melting point: 177 to 179 °C

Record O=S(=O)(Nc1ccc(OCc2ccc3ccccc3n2)cc1)c1c(F)c(F)c(F)c(F)c1F , field melting point: 170 to 178 °C

Record CCCc1nc(C(C)(C)O)c(C(=O)OCC)n1Cc1ccc(-c2ccccc2C#N)cc1 , field melting point: 92 to 93 °C

Record CCOC(=O)[C@@H](N)Cc1ccc([N+](=O)[O-])cc1I , field melting point: 33 to 34 °C

Record O=C(O)COc1ccnc2ccccc12 , field melting point: 274 to 276 °C

Record CC(=O)c1ccc(Sc2cccc(Br)c2)cc1 , field melting point: 54 to 57 °C

Record CCN1N=C(c2ccc3c(c2)CCC(=O)N3C)C(C)CC1=O (centres undefined) , field melting point: 170 to 172 °C

---

Task for the reader: assign each of the following molecules its reported melting point.

Record CCCCn1c(C)nc(N2CCc3ccccc3CC2)c([N+](=O)[O-])c1=O , field melting point: 158 to 161 °C

Record O=C(NC1CC1)c1cccc2c1CC(NC1CC1)CO2 (stereo unspecified) , field melting point: 126 to 127 °C

Record CC(=O)NC(NNc1ccccc1)C(=O)NCc1ccccc1 (stereo unspecified) , field melting point: 132 to 134 °C

Record O=S(=O)(C1=Cc2ccccc2C1)c1ccc(O)cc1 , field melting point: 209 to 210 °C

Record CNC(=O)Nc1scc(C(C)C)c1C#N , field melting point: 179 to 181 °C

Record C=CCc1cc(C(C)=O)c(OC)cc1OCCCCC#N , field melting point: 40 to 42 °C

---

Task for the reader: assign each of the following molecules its reported melting point.

Record Cn1cc(Br)cc(Nc2cc(C3CC3)n[nH]2)c1=O , field melting point: 203 to 204 °C

Record CC(C)(C)NC(=O)N1CC(Oc2ccc(C(F)(F)F)cc2)C1 , field melting point: 145 to 146 °C

Record CCOC(=O)C(=CNCc1cnsn1)C(=O)c1cc(F)c(F)cc1F , field melting point: 168 to 170 °C

Record COC(=O)c1cccc(-c2c(C)[nH]c(=S)n2Nc2cccc(C)c2)c1 , field melting point: 164 to 166 °C

Record Cc1ccc(C)n1CCNC(=O)Nc1ccc(Cl)cc1 , field melting point: 175 to 177 °C

Record Cc1oc(-c2ccccc2)nc1COc1cccc(CON2C(=O)c3ccccc3C2=O)c1 , field melting point: 146 to 147 °C

Record COC(=O)c1nc(-c2ccc([Si](C)(C)C)cc2F)c(F)c(N)c1OC , field melting point: 127 to 129 °C

Record CN1CCC2(C)c3cc(OC(=O)OC(C)(C)C)cc(Br)c3N(C)C12 (configuration not stated) , field melting point: 146 to 148 °C

Record CC(=O)Oc1cc2nc[nH]c(=O)c2cc1OC(C)=O , field melting point: 235 to 237 °C

Record N#Cc1cn(-c2ccc(C(F)(F)F)cc2)c(=O)n(SC(Cl)(Cl)Cl)c1=O , field melting point: 167 to 168 °C

Record CCCC(Cc1ccc(OCCN2CCCCCC2)cc1)(C(=O)OCC)S(=O)(=O)c1ccc(OC)cc1 (configuration not stated) , field melting point: 55 °C

Record CCOC(=O)c1cn(CCc2ccc(OC)cc2)c2cc(C3CC3)nn2c1=O , field melting point: 160 to 165 °C

Record O=[N+]([O-])c1cc(S(=O)c2ccc(-c3ccccc3)cc2)ccc1Cl (configuration not stated) , field melting point: 98 to 99 °C

Record COC(=O)CCc1ccc(Nc2ccccc2[N+](=O)[O-])cc1 , field melting point: 68 to 70 °C

Record CN(O)C(=O)Cc1ccc(-c2ccc(OCc3ccc4ccccc4n3)cc2)c(F)c1 , field melting point: 153 to 155 °C

Record Cn1nc(-c2nc(C#N)c(N)nc2-c2ccccc2)ccc1=O , field melting point: > 250 °C

Record CCCCCCCCCCCCCCC(=O)C(=O)NCCCC(=O)OCC , field melting point: 63 to 64 °C

Record COc1ccc(CCNC(=O)C2CCCCC2)cc1OC , field melting point: 110 to 111 °C

Record CCCCCCCCc1ccc(C(O)C(=O)c2ccccc2)cc1 (configuration not stated) , field melting point: 85 to 89 °C

Record COc1cc(CC(C#N)=CNc2ccccc2)cc(OC)c1NC(C)=O , field melting point: 165 to 167 °C

Record Cc1c(C(=O)O)cnn1-c1cc(Cl)cc(Cl)c1 , field melting point: 229 to 230 °C

Record CCOC(=O)c1cnc(SC)nc1NC(C)C , field melting point: 159 to 160 °C

Record OCc1cn(Cc2ccc(OCc3ccccc3)cc2)nc1-c1ccccc1 , field melting point: 88 to 89 °C

Record N#Cc1nc(Cl)ccc1N , field melting point: 162 to 165 °C

Record COc1cccc(C(=O)c2ccc(OC)c(C(=O)O)c2)c1 , field melting point: 132 °C

Record COc1cc(CON=C(CCC(=O)O)c2ccccc2)ccc1OCc1nc(-c2ccco2)oc1C , field melting point: 131 to 132 °C

Record COc1ccccc1N1CCN(C(=O)[C@@H](Cc2ccccc2)NC(=O)OC(C)(C)C)CC1 , field melting point: 95 to 97 °C

Record CC(C)Oc1c(C(N)=O)n(C)c2ccc(O)cc12 , field melting point: 234 to 237 °C

Record CCCOc1ccccc1-c1cc(C)c(C(=O)OC)c(=O)[nH]1 , field melting point: 167 to 169 °C

Record NC(=O)N(O)C1C=C(c2cccc(Oc3ccc(Cl)cc3)c2)CC1 (single isomer, unassigned; (+)) , field melting point: 143 to 144 °C

Record O=C1N=C(N2CCOCC2)SC1=Cc1cccc(-c2ccc(O)c(F)c2)c1 , field melting point: 233 to 235 °C

Record O=C1CC(SCc2ccccc2)N1 (configuration not stated) , field melting point: 50 to 51 °C
